Measured log10 of IC50 (human SHMT2 (Homo sapiens (Human)))
# values: log10(IC50), units µM

Previously resolved entries follow.
> print(dat)
                                   compound  reported.endpoint  test.value
1  Cc1n[nH]c2c1C(c1cc(Cl)cc(C(F)(F)F)c1)(C(C)C)C(C#N)=C(N)O2 (centres unmarked) [HK-15]      log10 of IC50       -1.46
2  Cc1n[nH]c2c1C(c1cccc(Cl)c1)(C(C)C)C(C#N)=C(N)O2 (centres unmarked) [HK-7]      log10 of IC50       -0.40
3  Cc1n[nH]c2c1C(c1cccc(Cl)c1)(C1CCC1)C(C#N)=C(N)O2 (centres unmarked) [HK-3]      log10 of IC50        0.08
4  Cc1n[nH]c2c1C(c1cc(N3CCCC3)cc(C(F)(F)F)c1)(C(C)C)C(C#N)=C(N)O2 (centres unmarked) [HK-X1]      log10 of IC50       -1.18

[in] Requested read-out: log10 of IC50. Entry: COc1cc(Cl)cc(C2(C3CCC3)C(C#N)=C(N)Oc3[nH]nc(C)c32)c1 (centres unmarked) [HK-9]
[out] 0.54
